Values were extracted from a melting point compilation (Tetko et al.; mined from patent text by program, amines drawn as free bases though some values may be those of a salt).

Reported melting point is given for each of the following compounds.

{"compound": "COC(=O)c1sc(C)c(C)c1O", "recordedMetric": "melting point", "val": "52 to 54 °C"}
{"compound": "CC(=O)C1CCC2C3CCC4CC(O)C(N5CCOC(Cc6ccccc6)C5)CC4(C)C3C(=O)CC12C (centres undefined)", "recordedMetric": "melting point", "val": "160 to 162 °C"}
{"compound": "Cc1cc(S(N)(=O)=O)ccc1NC(=O)CCl", "recordedMetric": "melting point", "val": "193 to 194 °C"}

Let us move to another entry and its melting point.
# melting point (compound: `Cc1c(-c2ccccc2)n(Cc2ccccc2)c2ccc(-c3ccc(OCC(=O)O)cc3)cc12` ) is 174 to 175 °C
